B1: Probable E3 ubiquitin-protein ligase MID2, residues 191 to 235; numbered along this chain, Q9UJV3 (parent)
chain: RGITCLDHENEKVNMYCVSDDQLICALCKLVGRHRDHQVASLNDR

variants of: B1; assay: abundance fitness (aPCA) (normalised: wild type 0, dead -1); higher = more abundant; growth selection in yeast, the domain comes from the species named; details: Homo sapiens
Reported abundance fitness maps to class as: low class: < -0.4; middle class: ≥ -0.4 and < -0.1; high class: ≥ -0.1

## Task Band for RGITCLAHENEKVNMYCVSDDQLICALCKLVGRHRDHQVASLNDR ?
## Result middle class

## Task Band for RGITCLDHENEKVNMYCVSNDQLICALCKLVGRHRDHQVASLNDR ?
## Result low class

## Task Band for RGITCLDHENEKVNMYCVSDDQLICALCKLVGRDRDHQVASLNDR ?
## Result low class

## Task Band for RGITCLDHENEKVNMYCVSDDQLICAFCKLVGRHRDHQVASLNDR ?
## Result high class

## Task Band for RGITCLDHENEKVNMYCVSDDQLTCALCKLVGRHRDHQVASLNDR ?
## Result middle class

## Task Band for RGITCLDHENEKVNMYCVSDDQLINALCKLVGRHRDHQVASLNDR ?
## Result low class

## Task Band for RGITCLDHENEKVNMYCVSDDQLICALCKLDGRHRDHQVASLNDR ?
## Result high class

## Task Band for RGITCLDHENEKVAMYCVSDDQLICALCKLVGRHRDHQVASLNDR ?
## Result high class

## Task Band for RGITCLGHENEKVNMYCVSDDQLICALCKLVGRHRDHQVASLNDR ?
## Result middle class

## Task Band for MGITCLDHENEKVNMYCVSDDQLICALCKLVGRHRDHQVASLNDR ?
## Result high class

## Task Band for RGITCLDHENEKVLMYCVSDDQLICALCKLVGRHRDHQVASLNDR ?
## Result middle class
